Target: Protease (Human immunodeficiency virus 1, UniProt Q9YQ12)
Sequence (Q9YQ12 whole entry): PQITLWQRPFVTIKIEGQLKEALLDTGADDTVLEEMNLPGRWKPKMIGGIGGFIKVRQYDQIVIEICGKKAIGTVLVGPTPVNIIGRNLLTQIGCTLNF
Experiment: Inhibition of wild type HIV1 HXB2 protease
Non-standard residues stand in square brackets, D forms with d. Residues, ends and D or L forms follow the SMILES beside them. Groups on a side chain read outwards from the residue. ξ: configuration not given here. Phe(4-Br) = N[C@@H](Cc1ccc(Br)cc1)C(=O)O; Phe(4-Cl) = N[C@@H](Cc1ccc(Cl)cc1)C(=O)O; 2Nal = N[C@@H](Cc1ccc2ccccc2c1)C(=O)O; hArg = N=C(N)NCCCC[C@H](N)C(=O)O; hPhe = N[C@@H](CCc1ccccc1)C(=O)O; Cha = N[C@@H](CC1CCCCC1)C(=O)O; Nle = CCCC[C@H](N)C(=O)O; Dab = NCC[C@H](N)C(=O)O; Nva = CCC[C@H](N)C(=O)O; Dap = NC[C@H](N)C(=O)O; ξDab = NCCC(N)C(=O)O; ξDap = NCC(N)C(=O)O
Can you tell me pKi for the items I'm about to list?
Note on pKi: it is the negative log10 of concentration, concentration in mol/L.

Task: Which pKi reading was recorded for the compound N=C(N)NCCC[C@H](NC(=O)C(N)CCNC(=O)[C@H](CC1CCCCC1)NC(=O)[C@@H](N)CCc1ccccc1)C(=O)N[C@@H](CCc1ccccc1)C(=O)N[C@@H](CC1CCCCC1)C(=O)O (some centres undefined) (H-[ξDab]([Cha-hPhe])R[hPhe][Cha]-OH) ?
Result: 5.70

Task: Which pKi reading was recorded for the compound CC(C)C[C@H](NC(=O)[C@H](Cc1ccc(Br)cc1)NC(=O)[C@H](CCC(=O)O)NC(=O)C(N)CNC(=O)[C@H](CC1CCCCC1)NC(=O)[C@@H](N)Cc1ccc(Cl)cc1)C(=O)O (stereo partly drawn) (H-[ξDap]([Cha-Phe(4-Cl)])E[Phe(4-Br)]L-OH) ?
Result: 5.26

Task: Which pKi reading was recorded for the compound CC(C)C[C@H](NC(=O)[C@H](Cc1ccccc1)NC(=O)[C@H](CCCCNC(=N)N)NC(=O)[C@@H](N)CNC(=O)[C@H](CC1CCCCC1)NC(=O)[C@@H](N)CCc1ccccc1)C(=O)O (H-[Dap]([Cha-hPhe])[hArg]FL-OH) ?
Result: 5.34

Task: Which pKi reading was recorded for the compound CCCC[C@H](NC(=O)[C@@H](N)Cc1ccc2ccccc2c1)C(=O)NCC[C@H](N)C(=O)N[C@@H](CCC(=O)O)C(=O)N[C@@H](CCc1ccccc1)C(=O)N[C@@H](CCC)C(=O)O (H-[Dab]([Nle-2Nal])E[hPhe][Nva]-OH) ?
Result: 4.66
